This collection of values is drawn from paper PMC11372839.

# protocol.description: Contact angle of aqueous solutions, sessile drop method on paraffin
# Type: physicochemical
# test.context: aqueous solution, concentration 0.25%, 25 °C
Threshold 100 °: Contact angle strictly smaller gives y, otherwise n.

Examples from the recorded data:
• CCCCCCCCCC[n+]1cccc(C(N)=O)c1.O=C([O-])c1ccccc1O = y
• CC[n+]1cccc(C(N)=O)c1.O=C([O-])c1ccccc1O = n
• CCCCCC[n+]1cccc(C(N)=O)c1.O=C([O-])c1ccccc1O = n
• O=C(O)c1ccccc1O [SAL, salicylic acid, reference compound] = n
• NC(=O)c1cccnc1 [NA, nicotinamide, reference compound] = n

Now turn to the next compound.
Request: Strictly below 100 ° in Contact angle? NC(=O)c1cccnc1.O=C(O)c1ccccc1O [[NA][SAL], reference compound]
Response: n
